Source: patent US20110136751A1

# System: Panc 10 05
# assay.name: IC50 on cell viability, Cell Counting Kit-8
# Type: cell-based
# test.conditions: Homo sapiens, Panc1005; code 33, Panc 10 05, Pancreas Adenocarcinoma; cell viability 120 h after administration
metric: IC50 (µM)

>  <compound>
Oc1ccc(/C=C/c2cc(O)cc(O)c2)cc1 [RI, trans-3,5,4′-trihydroxystilbene, reference compound]

>  <IC50 [µM]>
24.2

$$$$

I. COc1cc(/C=C/c2ccc(O)cc2)cc(OC)c1 [t-PTER, trans-3,5-dimethoxy-4′-hydroxystilbene]
II. O=c1c(O)c(-c2ccc(O)c(O)c2)oc2cc(O)cc(O)c12 [QUER, quercetin]
(Q) For the pair I and II , which member has the lower IC50 number? Please indicate the selected item by its label.
(A) II
(II: 23 µM, I: 46.3 µM)

* * *

# Tested on: A375
# assay.name: IC50 on cell viability, Cell Counting Kit-8
# Assay type: cell-based
# test.conditions: Homo sapiens, A-375; code 23, A375, Skin Melanoma; cell viability 120 h after administration
metric: IC50 (µM)

>  <compound>
O=c1c(O)c(-c2ccc(O)c(O)c2)oc2cc(O)cc(O)c12

>  <metric>
IC50

>  <test.value>
19.6

$$$$

1. Oc1ccc(/C=C/c2cc(O)cc(O)c2)cc1 [RI, trans-3,5,4′-trihydroxystilbene, reference compound]
2. COc1cc(/C=C/c2ccc(O)cc2)cc(OC)c1 [t-PTER, trans-3,5-dimethoxy-4′-hydroxystilbene]
(Q) Compare 1 and 2 by numeric IC50 and name the larger one. Please indicate the selected item by its label.
(A) 2
(2: 75.3 µM, 1: 24.9 µM)

* * *

# System: A549
# assay.name: IC50 on cell viability, Cell Counting Kit-8
# Assay type: cell-based
# test.conditions: Homo sapiens; code 22, A549, Lung Carcinoma; cell viability 120 h after administration
pIC50: −log10 of the molar value.
metric: pIC50

>  <molecule>
O=c1c(O)c(-c2ccc(O)c(O)c2)oc2cc(O)cc(O)c12

>  <test.value>
4.87

$$$$

I. Oc1ccc(/C=C/c2cc(O)cc(O)c2)cc1 [RI, trans-3,5,4′-trihydroxystilbene, reference compound]
II. COc1cc(/C=C/c2ccc(O)cc2)cc(OC)c1 [t-PTER, trans-3,5-dimethoxy-4′-hydroxystilbene]
(Q) Compare I and II by numeric pIC50 and name the larger one. Please indicate the selected item by its label.
(A) I
(I: 4.79, II: 4.59)

* * *

# Tested on: HPAF-II
# assay.name: IC50 on cell viability, Cell Counting Kit-8
# Type: cell-based
# test.conditions: Homo sapiens; code 32, HPAF-II, Pancreas Adenocarcinoma; cell viability 120 h after administration
Recorded IC50, one value per entry.
API: value field is a number in µM; no unit string.

Please review the entries below; each comes with its answer.
>  <compound>
COc1cc(/C=C/c2ccc(O)cc2)cc(OC)c1 [t-PTER, trans-3,5-dimethoxy-4′-hydroxystilbene]

>  <test.system>
HPAF-II

>  <IC50 / µM>
55.6

$$$$
>  <compound>
Oc1ccc(/C=C/c2cc(O)cc(O)c2)cc1 [RI, trans-3,5,4′-trihydroxystilbene, reference compound]

>  <test.system>
HPAF-II

>  <IC50 / µM>
86.1

$$$$

Turning now to a further compound:
(Q) Send back HPAF-II IC50 of O=c1c(O)c(-c2ccc(O)c(O)c2)oc2cc(O)cc(O)c12 only.
(A) 20.2
